assay: NCI Yeast Anticancer Drug Screen. Data for the sgs1 mgt1 strain (AID 161);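 further: 0% = growth of cultures given vehicle only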; settings: S. cerevisiae sgs1 mgt1 strain, hits give high values; at 50.0 µM unless noted
About 79,000 compounds went through this panel and 15% of them were active in at least one assay; those are over-represented in the sample as a whole. Active and inactive are the calls of the source. No stated cut-off is given here; in the data, active means growth inhibition above about 70%; inactive means the rest.
measured_attribute: growth inhibition

Item: CC(=O)c1ccc(N=CC2CCCCC2=O)cc1 (configuration not stated) | growth inhibition: 17.1% (inactive)

get_value(item= CCOC(=N)n1c(=O)n(C2=NCCN2)c2ccccc21 , readout=growth inhibition) returns -48.5% (inactive)

Lab note: O=S(=O)(O)c1ccc(N=Nc2ccc(O)cc2)cc1 gave growth inhibition of -10.1% (inactive)

Reported growth inhibition of CCCOc1cc2c(cc1C(C)c1ccc(OC)c(C)c1)OCO2 (configuration not stated) : -6% (inactive)

growth inhibition recorded for this compound, O=C(Nc1ccccc1Cl)c1cc2cc(N=Nc3ccc(Br)cc3)ccc2oc1=O , is -3.8% (inactive)

Form: compound = CN1N=C(c2ccncc2)OC1c1cccc(C(F)(F)F)c1 (configuration not stated) ; growth inhibition = -32.8% (inactive)

Consider N#C/C=C\c1ccc(-c2cc(C(F)(F)F)cc(C(F)(F)F)c2)o1 . Its measured growth inhibition is -42.5% (inactive)

The reported value for NNC(=O)Cc1cccnc1 in terms of growth inhibition is -26.1% (inactive)

Summary for this compound, CCOC(=O)c1cnc2c(cnn2CC)c1NCC(C)C : growth inhibition is 18.6% (inactive)

Sample N#Cc1ccccc1NC(=O)C(=O)c1c(O)c2ccccc2oc1=O ; growth inhibition observed: -16.1% (inactive)

// recorded growth inhibition for N#CSc1ccc(NN)cc1 : 30.4% (inactive)

The compound listed as COc1ccc(-[n+]2nc(S(=O)(=O)O)c(/C=C/c3ccc(N(C)C)cc3)cc2C#N)cc1 has a reported growth inhibition of 20.1% (inactive)

----------
Assay: NCI Yeast Anticancer Drug Screen. Data for the sgs1 mgt1 strain (AID 161);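 further: 0% = growth of cultures given vehicle only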
Settings: S. cerevisiae sgs1 mgt1 strain, hits give high values; at 50.0 µM unless noted
Procedure: Growth inhibition of yeast strains with defined genetic alterations is measured as a screen for potential anti-cancer activity. Selected strains with alterations in DNA damage repair or cell cycle control were exposed to compounds and growth inhibition was measured relative to vehicle treated controls. The strain used in this assay is sgs1 mgt1
Compounds without any hit were thinned out: in the full panel of roughly 79,000, 15% have a hit. The source made the active and inactive calls. No stated cut-off is given here; in the data, active means growth inhibition above about 70%; inactive means the rest.
Kindly supply the reported growth inhibition values for the records listed here.

Documented growth inhibition of Cc1ccc2nc(NC(=O)C(=O)C(C#N)c3nc4ccccc4s3)sc2c1 (stereo not given) : 19.7% (inactive)

The compound listed as COC(=O)C1(c2ccccc2)N=C(c2ccc(C)cc2)ON1c1ccccc1 (stereo not given) shows growth inhibition equal to -7.85% (inactive)

The compound listed as COCCN=Cc1ccc(N(C)C)cc1 has a reported growth inhibition of -3.05% (inactive)

Measured growth inhibition of CC(C)CCCC(C)[C@H]1CCC2C3CC=C4C[C@@H](OC(=O)CC(CC(=O)[O-])C(=O)[O-])CC[C@]4(C)C3CC[C@@]21C.N.N.[Pt+4] (stereo not given in full) : 11.7% (inactive)

The value of growth inhibition measured for the compound NC1CCCC2CCC(N)C12 (stereo not given) turned out to be 20.8% (inactive)

Just for reference, PubChem BioAssay (NCI) is where these values come from.
